# STUDY_SYSTEM: Protein Tat (Human immunodeficiency virus type 1 group M subtype B (isolate HXB2)) (UniProt P04608)
# Sequence (P04608 whole entry, looked up): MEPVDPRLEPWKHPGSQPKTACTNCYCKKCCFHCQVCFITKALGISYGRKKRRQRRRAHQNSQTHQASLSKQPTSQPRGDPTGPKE
# EXPERIMENT: inhibitors of Tat binding to TAR RNA, dose response, counter-screen for Vif-APOBEC3G degradation inhibitor project, biochemical, fluorescence polarization, FAM-labeled TAR RNA (AID 1117361)
READOUT_LABEL: IC50

Use the examples below as a reference point.
COc1cc(C(=O)NCC(c2ccco2)N2CCCC2)ccc1OCc1c(C)noc1C (stereo unspecified)	93.5 µM
COC(=O)\C(C(C)=O)=C(/C=C/C=C/C=C/N(C)C)N(C)C	56.3 µM

Fill blank: measured IC50 of the compound CCOC(=O)N1CCN(C(=O)c2ccc3c(SCC(=O)O)c4c(nc3c2)CCC4)CC1 is ____.
7.65 µM

Item under review: O=C(C1CCCN1S(=O)(=O)c1cccc2cccnc12)N1CCN(c2ccccc2)CC1 (stereo unspecified) . Reported IC50?
46.8 µM

What measured IC50 goes with O=C(N/N=C/C=C/c1ccco1)c1ccncc1 ?
10.2 µM

Tell me the measured IC50 of Nc1ncnc2oc(-c3ccco3)c(-c3ccco3)c12 , please.
3.36 µM

Could you tell me which IC50 is on file for Cc1ccc2cc(C(c3nnnn3Cc3ccccc3)N3CCc4ccccc43)c(=O)[nH]c2c1 (stereo unspecified) ?
46.4 µM

What value of IC50 has been recorded for this entry: COC/C=C/C1=CC2=CC(=O)C(C)(OC(=O)CCC(=O)OC)C(=O)C2=CO1 (stereo unspecified)
8.1 µM

Consider the compound C=CCn1c(C)cc(-c2csc(N)n2)c1C and give its measured IC50.
5.49 µM

Query: IC50; subject: O=C1/C(=C/c2ccco2)SC(=S)N1C1CCS(=O)(=O)C1 (stereo unspecified)
5.05 µM

Which measured IC50 value corresponds to CCCCn1c(=NC(=O)c2cccnc2)c(C#N)cc2c(=O)n3cccc(C)c3nc21 ?
4.74 µM

Suppose we examine the compound O=C(O)C1Nc2c(Cl)cc(Cl)cc2C2C=CCC12 (stereo unspecified) ; what IC50 value has been reported?
94.4 µM

Report IC50 for COc1cccc(C2CC(c3ccccc3OC)n3nc(N)nc3N2)c1 (stereo unspecified) please.
0.686 µM

What measured IC50 goes with O/C=c1\ccc2cccc3nc(C(F)(F)F)nc1c23 ?
2.92 µM

----------
# STUDY_SYSTEM: Protein Tat (Human immunodeficiency virus type 1 group M subtype B (isolate HXB2))
# EXPERIMENT: inhibitors of Tat binding to TAR RNA, dose response, counter-screen for Vif-APOBEC3G degradation inhibitor project, biochemical, fluorescence polarization, FAM-labeled TAR RNA (AID 1117361)
Below, each entry is listed with its recorded IC50.

Some entries whose results are on file:
O=c1oc2c3c4c(cc2s1)CCCN4CCC3	26 µM
Cc1cc(/C=N/Nc2ccc([N+](=O)[O-])cn2)c(C)n1-c1ccc(C(=O)O)cc1	5.58 µM
Cc1ccc(C)n1-c1ccc(-c2nnc3n2CCCCC3)s1	54.2 µM
O=C(Nc1cc(Cl)cc(Cl)c1)c1coc(=O)c(Br)c1	23.5 µM
Cn1c(=O)c2c(ncn2CC(=O)N/N=C/C=C/c2ccco2)n(C)c1=O	17.1 µM
O=C1/C(=C/C=C/c2ccco2)SC(=S)N1c1ccc(O)cc1	19.1 µM
CCN(CC(=O)Nc1c(C(=O)OC)[nH]c2ccccc12)c1ccc2c(c1)OCO2	14.3 µM
CCC(=O)N1N=C(c2ccc(NS(C)(=O)=O)cc2)CC1c1ccc(C)cc1 (centres undefined)	88.8 µM
NS(=O)(=O)c1ccc2c(c1)C1C=CCC1C(C1CC=CCC1)N2 (centres undefined)	9.98 µM
O=C1/C(=C/c2ccco2)SC(=S)N1c1cccnc1	3.9 µM

I would be grateful if you could share the reported IC50 for O=c1c2cc(N3CCOCC3)ccc2[nH]c(=S)n1Cc1ccco1 .
38.7 µM

Which value of IC50 has been reported for Cc1ccc([C@@H]2C3COCC=C3C(C#N)=C(N)C2(C#N)C#N)o1 (some centres undefined) in the records?
4.05 µM

For CCCNC1=C(C)C(=O)C2=C(C1=O)C(COC(N)=O)[C@]1(OC)C3NC3CN21 (some centres undefined) , what is its reported IC50?
22.7 µM

Recorded IC50 of CCOC(=O)C1CCN(C(c2cccs2)c2sc3nc(C)nn3c2O)CC1 (centres undefined) , please.
1.96 µM
